- system name: PI3Kδ (Homo sapiens (Human))
- Sequence (O00329 whole entry, canonical isoform): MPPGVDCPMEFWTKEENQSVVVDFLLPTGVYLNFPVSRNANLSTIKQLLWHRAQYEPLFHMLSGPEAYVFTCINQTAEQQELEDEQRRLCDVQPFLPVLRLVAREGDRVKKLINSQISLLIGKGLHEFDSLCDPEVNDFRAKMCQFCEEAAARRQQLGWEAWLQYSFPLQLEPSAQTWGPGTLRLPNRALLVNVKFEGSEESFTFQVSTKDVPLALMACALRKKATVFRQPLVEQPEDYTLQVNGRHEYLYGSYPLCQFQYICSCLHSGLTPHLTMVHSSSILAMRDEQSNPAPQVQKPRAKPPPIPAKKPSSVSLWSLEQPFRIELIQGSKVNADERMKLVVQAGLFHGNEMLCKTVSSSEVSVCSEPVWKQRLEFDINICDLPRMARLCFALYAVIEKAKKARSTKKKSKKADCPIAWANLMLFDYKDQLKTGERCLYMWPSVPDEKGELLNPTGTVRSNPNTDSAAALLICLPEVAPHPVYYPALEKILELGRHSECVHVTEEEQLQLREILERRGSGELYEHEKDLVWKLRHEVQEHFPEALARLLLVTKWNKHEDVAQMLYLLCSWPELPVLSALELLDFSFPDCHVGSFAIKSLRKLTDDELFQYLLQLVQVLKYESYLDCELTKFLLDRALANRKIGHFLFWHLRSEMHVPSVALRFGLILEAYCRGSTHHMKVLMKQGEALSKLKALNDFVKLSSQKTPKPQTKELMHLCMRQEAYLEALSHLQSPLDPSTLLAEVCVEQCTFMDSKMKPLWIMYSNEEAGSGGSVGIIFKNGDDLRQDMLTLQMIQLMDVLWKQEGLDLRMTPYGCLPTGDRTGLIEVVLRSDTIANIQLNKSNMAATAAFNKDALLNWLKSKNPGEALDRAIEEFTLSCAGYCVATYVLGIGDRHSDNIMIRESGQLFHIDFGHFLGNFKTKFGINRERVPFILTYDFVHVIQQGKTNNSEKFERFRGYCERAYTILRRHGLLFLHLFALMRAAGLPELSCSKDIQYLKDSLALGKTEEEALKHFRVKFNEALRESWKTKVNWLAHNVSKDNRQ
- Sequence (P27986 whole entry partner, canonical isoform): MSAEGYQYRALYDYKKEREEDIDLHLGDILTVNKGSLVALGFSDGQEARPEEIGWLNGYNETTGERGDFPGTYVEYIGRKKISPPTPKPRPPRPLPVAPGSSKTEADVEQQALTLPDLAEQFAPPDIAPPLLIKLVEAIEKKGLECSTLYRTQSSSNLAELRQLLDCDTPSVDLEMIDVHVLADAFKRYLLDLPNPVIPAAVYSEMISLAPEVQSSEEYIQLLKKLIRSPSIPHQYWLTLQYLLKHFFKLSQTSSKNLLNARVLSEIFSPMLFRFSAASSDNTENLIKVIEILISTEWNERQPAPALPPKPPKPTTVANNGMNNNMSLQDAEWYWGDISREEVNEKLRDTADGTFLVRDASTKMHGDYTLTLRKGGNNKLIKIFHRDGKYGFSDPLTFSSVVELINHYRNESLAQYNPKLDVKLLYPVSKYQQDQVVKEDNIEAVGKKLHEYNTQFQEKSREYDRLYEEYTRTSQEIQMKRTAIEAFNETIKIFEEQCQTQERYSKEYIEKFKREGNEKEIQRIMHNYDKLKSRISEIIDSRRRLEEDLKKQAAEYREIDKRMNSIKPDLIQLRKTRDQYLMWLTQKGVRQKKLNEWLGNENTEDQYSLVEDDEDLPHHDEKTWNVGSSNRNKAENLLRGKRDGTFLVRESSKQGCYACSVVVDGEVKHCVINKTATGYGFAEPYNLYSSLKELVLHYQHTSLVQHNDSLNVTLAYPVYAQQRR
- test method notes: PI3K delta isoform inhibition
# reported IC50; entries follow
Number only, in µM; omit the unit.

{"structure string": "O=c1cc(N2CCOCC2)oc2c(-c3ccccc3)cccc12", "system name": "PI3Kδ (Homo sapiens (Human))", "reported metric": "IC50", "observed value": 3.22}

Moving on to the next compound.
Fill in the blank: the reported IC50 of O=c1cc(N2CCOCC2)oc2c(-c3ccccc3)csc12 is ____.
0.784

* * *

- system name: UniProt O60885
reported metric: IC50

State its IC50 on UniProt O60885: CC[C@H](Nc1ncnc2[nH]cnc12)c1nc2cccc(F)c2c(=O)n1-c1ccccc1
> 50 µM

* * *

- system name: BRD4 (Homo sapiens, UniProt O60885)
- test method notes: BRD4 inhibition assay (region not distinguished)
- Format: biochemical
- experimental conditions: BRD4 regions 1 and 2

{"molecule": "CC[C@H](Nc1ncnc2[nH]cnc12)c1nc2cccc(F)c2c(=O)n1-c1ccccc1 [CAL101]", "BRD4 inhibition": "no BRD4 inhibition"}
{"molecule": "COC(=O)c1ccc(-c2csc3c(=O)cc(N4CCOCC4)oc23)cc1 [Cmpd 44]", "BRD4 inhibition": "showed activity"}
{"molecule": "O=c1cc(N2CCOCC2)oc2c(-c3ccc4c(c3)OCCO4)csc12 [Cmpd 28]", "BRD4 inhibition": "showed activity"}
{"molecule": "Nc1cc(C(F)(F)F)c(-c2cc(N3CCOCC3)nc(N3CCOCC3)n2)cn1 [BKM120]", "BRD4 inhibition": "no BRD4 inhibition"}

* * *

Measurement record for BRD4-1 (Homo sapiens (Human)); quantity recorded: pIC50.
pIC50 is a log-scale quantity: -log10 of the concentration expressed in molar.

The following molecules have reported results that may help.
{"molecule": "O=C(Nc1ccc(-c2csc3c(=O)cc(N4CCOCC4)oc23)cc1)c1ccncc1 [Cmpd 120]", "system name": "BRD4-1 (Homo sapiens (Human))", "pIC50": 6.49}
{"molecule": "Cc1ccc(C)c(NC(=O)Nc2cccc(-c3csc4c(=O)cc(N5CCOCC5)oc34)c2)c1 [Cmpd 137]", "system name": "BRD4-1 (Homo sapiens (Human))", "pIC50": 6.13}
{"molecule": "O=c1cc(N2CCOCC2)oc2c(C#Cc3ccccc3)csc12 [Cmpd 128]", "system name": "BRD4-1 (Homo sapiens (Human))", "pIC50": 5.40}
{"molecule": "Cn1ncc2ccc(-c3csc4c(=O)cc(N5CCOCC5)oc34)cc21 [Cmpd 130]", "system name": "BRD4-1 (Homo sapiens (Human))", "pIC50": 6.46}
{"molecule": "COC(=O)c1ccc(-c2csc3c(=O)cc(N4CCOCC4)oc23)cc1 [Cmpd 44]", "system name": "BRD4-1 (Homo sapiens (Human))", "pIC50": 6.09}

Query molecule follows.
Test system BRD4-1 (Homo sapiens (Human)); read-out pIC50; what value for CNC(=O)Nc1cccc(-c2csc3c(=O)cc(N4CCOCC4)oc23)c1 [Cmpd 133] ?
6.25

* * *

- Tested on: SKNBE (2) cells
- test method notes: Western blot of p-AKT and N-MYC in SKNBE(2) cells
- Assay type: cell-based, human
- experimental conditions: 24 hrs treatment, IGF stimulated
reported metric: MYCN protein quantity, Western blot

{"compound": "O=c1cc(N2CCOCC2)oc2c(-c3ccccc3)cccc12 [LY294002]", "observed value": "decreased"}
{"compound": "O=c1cc(N2CCOCC2)oc2c(-c3ccc4c(c3)OCCO4)csc12 [Cmpd 28]", "observed value": "decreased"}
